Reference for the values: patent US11051515B2

Test system: CYPES
Assay: Pre-emergence action against CYPES
Type: in vivo, Cyperus esculentus
Conditions: pre-emergence, dosage 320 g/ha, scored visually after 3 weeks vs untreated controls
READOUT NAME: Pre-emergence action against CYPES (herbicidal activity) (%)
Form entry: value (%) — number only.

Returns the measured Pre-emergence action against CYPES (herbicidal activity) for the input compound. Input: `CCCn1nnnc1NC(=O)c1ccc(S(C)(=O)=O)c(C(=O)C2CC2)c1Cl`
90

Again, but for `COCC(=O)c1c(C(F)(F)F)ccc(C(=O)Nc2nnnn2C)c1Cl`
100

Again, but for `CCCn1nnnc1NC(=O)c1ccc(C(F)(F)F)c(C(C)=O)c1SC`
90

Again, but for `CCn1nnnc1NC(=O)c1ccc(S(C)(=O)=O)c(C(C)=O)c1Cl`
90

Again, but for CC1CC1C(=O)c1c(C(F)(F)F)ccc(C(=O)Nc2nnnn2C)c1Cl (centres unmarked)
90

---

Test system: STEME
Assay: Post-emergence action against STEME
Type: in vivo, Stellaria media
Conditions: post-emergence, dosage 80 g/ha
READOUT NAME: Post-emergence action against STEME

Which Post-emergence action against STEME is reported with STEME for this entry: `CCCn1nnnc1NC(=O)c1ccc(C(F)(F)F)c(C(C)=O)c1SC` ?
100

Again, but for `CCCn1nnnc1NC(=O)c1ccc(C(F)(F)F)c(C(=O)COC)c1Cl`
100

Again, but for `CCCn1nnnc1NC(=O)c1ccc(C(F)(F)F)c(C(=O)C(F)F)c1Cl`
100

Again, but for `CCCn1nnnc1NC(=O)c1ccc(C(F)(F)F)c(C(=O)C2CCC2)c1SC`
100

Again, but for `CCn1nnnc1NC(=O)c1ccc(C(F)(F)F)c(C(=O)C2CCCCC2)c1SC`
80

---

System: VERPE
Test: Post-emergence action against VERPE
Type: in vivo, Veronica persica
Details: dosage 80 g/ha
Method: Seeds of monocotyledonous and dicotyledonous weed and crop plants are laid out in sandy loam soil in wood-fiber pots, covered with soil and cultivated in a greenhouse under good growth conditions. 2 to 3 weeks after sowing, the test plants are treated at the one-leaf stage. […]
Hi there, I'd appreciate the recorded Post-emergence action against VERPE for every entry that follows.
Please respond with just the number, no unit label.

Returns the measured Post-emergence action against VERPE for the input molecule. Input: `CCCn1nnnc1NC(=O)c1ccc(C(F)(F)F)c(C(=O)C2CC2)c1OC`
100

Again, but for `CCCn1nnnc1NC(=O)c1ccc(C(F)(F)F)c(C(C)=O)c1C`
80

Again, but for `CCn1nnnc1NC(=O)c1ccc(C(F)(F)F)c(C(=O)C2CCC2)c1SC`
80

Again, but for `CCCn1nnnc1NC(=O)c1ccc(S(C)(=O)=O)c(C(C)=O)c1C`
100

Again, but for `CCn1nnnc1NC(=O)c1ccc(C(F)(F)F)c(C(=O)COC)c1Cl`
90

Again, but for `COCC(=O)c1c(C(F)(F)F)ccc(C(=O)Nc2nnnn2C)c1Cl`
90

Again, but for `CCCn1nnnc1NC(=O)c1ccc(C(F)F)c(C(=O)C2CC2)c1SC`
80

Again, but for `CCn1nnnc1NC(=O)c1ccc(C(F)(F)F)c(C(=O)C2CC2)c1C1CC1`
100

Again, but for `Cn1nnnc1NC(=O)c1ccc(C(F)(F)F)c(C(=O)C2CCC2)c1Cl`
80

Again, but for `CCn1nnnc1NC(=O)c1ccc(Cl)c(C(=O)C2CCCC2)c1Cl`
80

Again, but for `CCCn1nnnc1NC(=O)c1ccc(C(F)F)c(C(C)=O)c1SC`
80

Again, but for `CCCn1nnnc1NC(=O)c1ccc(C(F)(F)F)c(C(C)=O)c1SC`
80

Again, but for `CCn1nnnc1NC(=O)c1ccc(SC)c(C(C)=O)c1Cl`
100

Again, but for `CCCC(=O)c1c(C(F)(F)F)ccc(C(=O)Nc2nnnn2CCC)c1C`
80

Again, but for `CCn1nnnc1NC(=O)c1ccc(C(F)(F)F)c(C(=O)C(C)C)c1Cl`
80

Again, but for `CCn1nnnc1NC(=O)c1ccc(C)c(C(C)=O)c1Cl`
90

Again, but for `CCn1nnnc1NC(=O)c1ccc(C(F)(F)F)c(C(=O)C2CC2)c1SC`
100

Again, but for `CCCn1nnnc1NC(=O)c1ccc(C(F)(F)F)c(C(=O)COC)c1Cl`
80

Again, but for `CCCn1nnnc1NC(=O)c1ccc(SC)c(C(=O)C2CC2)c1Cl`
100

Again, but for CC1CC1C(=O)c1c(C(F)(F)F)ccc(C(=O)Nc2nnnn2C)c1Cl (centres unmarked)
100
